test: soluble on expression in E. coli; label from the status in PepcDB or PDB records
metric.name: soluble on expression in E. coli

Example sequences with recorded soluble on expression in E. coli:
QUERY: Return reported soluble on expression in E. coli; argument: AVSFTGVSGVKNIVAVTACPTGVAHTFMSAEAIEAYAKKQGWNVKVETRGQVGAGNEITVEEVAAADLVFVAADIDVPLDKFKGKPMYRTSTGLALKKTEQEFDKAFKEAKIF
RESULT: not soluble

QUERY: Return reported soluble on expression in E. coli; argument: MGSDKIHHHHHHMVKIKEGFKGERLVSLPEELLASYRREPLINNLYVRKIGFFPRVKYHFLQKEHGCDYAMLIYCTEGKGWYRILGKQYTVEKYQYIIIPPGIPYSFGADEGDPWTIYWLHFQGKLCDQFLPSHPVPVTISPNEYSRLQDRLRLFEEIYSSFSMGYIKEYMIYSSMCLYNFLASFIYLEQFRHIMIPSQKEYPFTARVIHYMRENIQQNLTLKELASYFKYSPSHFSALFFGETGVSPMNYFIRLKIQKACEYIELTNMKLNEIATHLGFEDAAYFSRTFTKVMGCSPSVYRKKEMEI
RESULT: not soluble

QUERY: Return reported soluble on expression in E. coli; argument: MGSDKIHHHHHHMTETWNFINTGSKDPYYNMAMDEALLNFVSRGEIDPVIRFYTWNPATLSIGYFQRLQKEIDIDKVKEKGFGLVRRQTGGRGVLHDKELTYSVIVPESHPNMPSTVTEAYRVISQGLLEGFKNLGFNTYFAVPKTPEERQKLKQPRSSVCFDAPSWYELVVEGRKIAGSAQTRQKGVILQHGSILQDIDIDELFDMFIYKNERLKLKMKEAFVEKAVAINDISDKHITISQMEEAFEKGFKKGLNIELKPLELTEAQLAEVEELTEKYRSDEWMFRK
RESULT: not soluble

QUERY: Return reported soluble on expression in E. coli; argument: MGSDKIHHHHHHMLKPSDKWSWYFSDSEGYLMLNLGDDMLFRTNLSRNLLVDCAFIENPFTVDDASDFQLYKEHIACLPLSEPRKAELALYCVAAKRFHKPVQPKSWFFDVQGTGYTPQQGQLISLRNSLNSGIFIALEVGENATLCAYSDLVSFALNGSKTLEFGQVIKVMHDRMSDVNTLLYTPQMAMVS
RESULT: not soluble

Moving on to another sequence below.
QUERY: Return reported soluble on expression in E. coli; argument: MGSDKIHHHHHHMLLGRTANGLYWMNRYIERAENMARLVDAGLRMALTRTQNASEEWNSVLLSAGSDVAFKQKYSDYTAADVADFLLRDTSNPSSTMSSIETARNNARMVRTALTRETWESINEAWMSLKRMLARPIDERDLPSVLDAIKRETALIRGSFYGTMLRNEIFDFSQLGTYVERADNTARILDVKYYVLLPSISWVGSTLDNYQWESILRSVSAHRSYRWVYDADYKPTNIADYLILNVRMPRSLTFCYRFLSEHLKFLSDDYGERHACHATAEKTQAMLRAGSIKDIFDAGLHEFLAGFIRDNTRLGDEIAQDYRFY
RESULT: not soluble

This collection of values is drawn from the DeepSol protein solubility set.
